Target: recombinant RORγ Ligand Binding Domain (LBD) (Homo sapiens (Human), UniProt P51449)
Sequence (P51449 269-508): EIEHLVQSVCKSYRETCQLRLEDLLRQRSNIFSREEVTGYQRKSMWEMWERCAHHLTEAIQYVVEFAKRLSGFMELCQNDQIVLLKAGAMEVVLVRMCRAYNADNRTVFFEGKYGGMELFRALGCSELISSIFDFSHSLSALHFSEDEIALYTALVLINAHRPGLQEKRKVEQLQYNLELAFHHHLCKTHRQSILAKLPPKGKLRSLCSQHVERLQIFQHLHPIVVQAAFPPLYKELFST
Assay: Radio-Ligand RORγ Binding Assay (Assay 1)
Settings: SPA competition with 25-hydroxy [26,27-3H]-cholesterol, cell-free; read-out: RORγ Binding Ki Range
pKi: −log10 of the molar value.
The entries below come with measured pKi values attached.

In the examples that follow, each entry is paired with its recorded pKi.
Molecule	pKi
CC(C)[C@H]1c2ncc(C(=O)NCc3cn4cccnc4n3)cc2CN1Cc1ccc(C(F)(F)F)cc1 [Compound 69]	< 6.00
CC(C)[C@H]1c2ncc(C(=O)NCC3COCCO3)cc2CN1Cc1ccc(C(F)(F)F)cc1 (stereo partly shown) [Compound 85]	< 6.00
CNC(=O)[C@H]1CC[C@H](CNC(=O)c2cnc3c(c2)CN(Cc2ccc(C(F)(F)F)cc2)[C@H]3C(C)C)CC1 [Compound 108]	< 6.00
CC(C)[C@H]1c2ncc(C(=O)NCC(c3ccncc3)N(C)C)cc2CN1Cc1ccc(C(F)(F)F)cc1 (stereo partly shown) [Compound 92]	< 6.00
COC(=O)N1CCC(CNC(=O)c2cnc3c(c2)CN(Cc2ccc(C(F)(F)F)cc2)[C@H]3C(C)C)CC1 [Compound 110]	< 6.00

Lab note: need pKi with recombinant RORγ Ligand Binding Domain (LBD) (Homo sapiens (Human), UniProt P51449) for entry CC(C)[C@H]1c2ncc(C(=O)NC[C@H]3CC[C@H](C#N)CC3)cc2CN1Cc1ccc(C(F)(F)F)cc1 [Compound 129] , please look it up. 6.00 to 7.00

Lab note: need pKi with recombinant RORγ Ligand Binding Domain (LBD) (Homo sapiens (Human), UniProt P51449) for entry CC(C)[C@H]1c2ncc(C(=O)NCCC3CN(C(=O)OC(C)(C)C)C3)cc2CN1Cc1ccc(C(F)(F)F)cc1 [Compound 66] , please look it up. < 6.00
